This section presents compounds with their documented selectivity ratio values.
# PROCEDURE DETAILS: Therapeutic index, ratio of ED50 for antineoplastic activity against mouse L1210 cells allografted in CDF1 mouse to LD10 for CDF1 mouse
# MEASUREMENT CONDITIONS: read-out: TI

# COMPOUND, selectivity ratio
measured = [
    ("O=NN(CCCl)C(=O)N[C@H]1C(O)O[C@H](CO)[C@@H](O)[C@@H]1O (some centres not stated)", 0.7),
    ("O=NN(CCCl)C(=O)N[C@@H]1C(O)O[C@@H](CO)[C@H](O)[C@H]1O (some centres not stated)", 0.64),
]
